B1: FCHO1 (parent)
chain: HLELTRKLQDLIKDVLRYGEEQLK

Variants of: B1
Assay: protein stability index of a GFP-peptide fusion (GPS, HEK-293T) (PSI 1-6); higher = more stable;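 further: lentivirally expressed fusions sorted by FACS into six bins by GFP to DsRed ratio, PSI derived from sequencing read proportions per bin multiplied by bin number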
Details: c terminus: a fixed tail appended
readout: protein stability index

Sample answers from the record:
HLELTRKLQDLIKDVLRYGEECLK [Q22C] : 1.59
HLELTRKLQDLIKDVLRYGEEQLA [K24A] : 1.59
HLENTRKLQDLIKDVLRYGEEQLK [L4N] : 1.75

Provide reported protein stability index for each item, in the same order as listed.
1. HLELTRKLVDLIKDVLRYGEEQLK [Q9V]
2. HLELTRKLQDLYKDVLRYGEEQLK [I12Y]

[2.56, 2.34]

Provide reported protein stability index for each item, in the same order as listed.
1. HLELTRKLQDLIKDVLRYGEEQLM [K24M]
2. HLELTRKLQDLIKDVLRYMEEQLK [G19M]

1: 2.79; 2: 1.97
